Target: rCYP 2D6 (Homo sapiens)
Sequence (P10635 whole entry): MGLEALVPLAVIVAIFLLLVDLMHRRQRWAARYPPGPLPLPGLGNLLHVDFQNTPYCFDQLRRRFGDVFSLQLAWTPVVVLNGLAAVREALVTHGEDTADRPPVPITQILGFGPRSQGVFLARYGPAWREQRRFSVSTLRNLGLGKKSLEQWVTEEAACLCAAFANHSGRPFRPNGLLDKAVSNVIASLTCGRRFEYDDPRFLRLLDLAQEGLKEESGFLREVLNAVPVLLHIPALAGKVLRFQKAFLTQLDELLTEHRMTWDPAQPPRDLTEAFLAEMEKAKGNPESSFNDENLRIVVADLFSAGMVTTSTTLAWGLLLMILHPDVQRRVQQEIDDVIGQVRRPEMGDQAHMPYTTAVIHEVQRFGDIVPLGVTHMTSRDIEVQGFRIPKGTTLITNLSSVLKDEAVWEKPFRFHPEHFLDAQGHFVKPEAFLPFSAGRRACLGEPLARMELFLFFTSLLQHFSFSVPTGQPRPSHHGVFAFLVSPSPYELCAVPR
Test: rCYP450 inhibition, 2D6
Format: in vitro ADME
Set-up: concentration or dose not given beside the values
recorded-endpoint: rCYP % Inhibition 2D6 (%)
Your answer should be a plain number; it is taken to be in %.

In: Suppose we examine the molecule C[C@@H](O)CCCCOc1n[nH]c(=O)c2ccccc12 ; what rCYP % Inhibition 2D6 value has been reported?
Out: 12

In: Suppose we examine the molecule C[C@@H](O)CCCCN1c2ccccc2Oc2ccccc21 ; what rCYP % Inhibition 2D6 value has been reported?
Out: 73

In: Suppose we examine the molecule CC(=O)O[C@H](C)CCCCn1[nH]c(=O)n(-c2ccccc2)c1=O ; what rCYP % Inhibition 2D6 value has been reported?
Out: 10

In: Suppose we examine the molecule CC(O)CCCCN1C(=O)C(C)N(CCCCC(C)O)C(=O)C1C (mixture of isomers) ; what rCYP % Inhibition 2D6 value has been reported?
Out: 16
